meta.source: PubChem BioAssay

System: Sonic hedgehog protein (Shh)
Assay: small-molecule binders of Shh protein, primary screen, biochemical, small-molecule microarray, 635/667 nm fluorescence (AID 1151);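 also: Shh protein binding to compounds spotted on small-molecule microarray slides; score combines spot fluorescence intensity with signal-to-noise across triplicate slides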
Conditions: small-molecule microarray binding, 635 nm fluorescence; higher = more signal
property.measured: composite z-score
Reply with the value as a number alone.

Sample answers from the record:
Cc1c(NC(=O)CC#N)c(=O)n(-c2ccccc2)n1C; 0.642
CC(C)(C)OC(=O)CC[C@@]1(C(=O)NCCN2CCOCC2)N=C(c2ccc(OCCCO)cc2)O[C@@H]1c1ccccc1; 0.306

Prompt line: State its composite z-score on Sonic hedgehog protein (Shh): COCCOC(=O)N1C(=O)[C@@]2(c3cc(C#CCNC(N)=O)ccc31)[C@H](c1ccc(O)cc1)N1[C@H](c3ccccc3)[C@H](c3ccccc3)OC(=O)[C@H]1[C@@H]2C(=O)NC[C@H](O)c1ccccc1
Response line: 1.75

Prompt line: Quick check: composite z-score on Sonic hedgehog protein (Shh), item C=C(COC)/C(=C/C[C@H](OC(=O)c1ccncc1)c1cccc(OCCO)c1)c1cc(C(=O)OC)ccc1OC ?
Response line: 1.38

Prompt line: Which composite z-score is reported with Sonic hedgehog protein (Shh) for this entry: C=CC[C@@]1(C(=O)NCC(O)CO)N=C(c2ccc(OCCCO)cc2)O[C@@H]1c1ccccc1N=[N+]=[N-] (stereo partly drawn) ?
Response line: -0.0776

====

Assay: small-molecule binders of probe aNOTCH2, primary screen, biochemical, small-molecule microarray, 635/667 nm fluorescence (AID 1121);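 also: score merges feature fluorescence read at 667 nm with its signal to noise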
Conditions: higher = more signal
# Lookup of reported composite z-score keyed by entry
The reply should be a number, written without any unit.

COc1ccc(C(=O)Nc2cccc(CN3C(=O)[C@]4(O[C@H](CC(=O)N5CCC[C@H]5CO)[C@@H]([Si](C)(C)c5ccc(OC)cc5)[C@@H]4C)c4ccccc43)c2)cc1; -0.112
O=C1C2C=CC(C(O)c3ccc(-c4ccccc4)s3)N(n3cnnc3)C2C(=O)N1Cc1ccccc1 (configuration not stated); -0.0467
CCOC(=O)[C@H]1C[C@H]2O[C@@]23C[C@H]1C(=O)N1CCCC1[C@@H]3O[Si](C)(C)C(C)(C)C (some centres not stated); -0.102
NCCCCCCNC(=O)[C@H]1C[C@H]2C(=O)NCC(=O)N2[C@H]1c1cccc(OCCO)c1; -0.153
C=CCNC(=O)[C@@H]1[C@H]2C(=O)O[C@H](c3ccccc3)[C@H](c3ccccc3)N2[C@H](c2ccc(OCCO)cc2)[C@@]12C(=O)Nc1ccccc12; -0.157

Prompt line: Recorded composite z-score of COCCOC(=O)N1C(=O)[C@@]2(c3cc(C#CCNC(N)=O)ccc31)[C@H](c1ccc(O)cc1)N1[C@H](c3ccccc3)[C@H](c3ccccc3)OC(=O)[C@H]1[C@@H]2C(=O)Nc1nc2ccccc2s1 , please.
Response line: -0.0432

Prompt line: I am curious: what composite z-score value has been reported for CN1C=C(C(=O)OCCS(C)(=O)=O)C(C(=O)OCCS(C)(=O)=O)=CC(CCCO)=CC1C1CC1 (configuration not stated) ?
Response line: -0.108

====

Assay: FRG1 promoter luciferase signal modulators, primary screen, FRG1 inhibition for FSHD, cell-based, C2C12 myotubes, firefly/Renilla luciferase, luminescence (AID 1084)
Conditions: higher = more signal, called active from +8 up or from −8 down
Rule: z-score of 0.5 or more gives T; anything lower gives F.

Prompt line: Decide: is the reported value of z-score for CCCCCCc1nc(CCCc2cc3c(c(CCCCCC)n2)[Si](C(C)C)(C(C)C)OC3)cc2c1[Si](C(C)C)(C(C)C)OC2 equal to or greater than 0.5?
Response line: T

Prompt line: Form field: z-score at least 0.5? Entry: COCCOC(=O)N1C(=O)[C@@]2(c3cc(C#CCC(C(=O)OC)C(=O)OC)ccc31)[C@H](c1ccccc1OCCO)N1[C@H](c3ccccc3)[C@H](c3ccccc3)OC(=O)[C@H]1[C@@H]2C(=O)N1CCc2cc(OC)c(OC)cc2C1
Response line: F

Prompt line: Would you say COCCCNC(=O)[C@@]1(c2ccc([N+](=O)[O-])cc2)CC(=O)N(CC23CC4CC(CC(C4)C2)C3)[C@@H]1c1ccc(CO)cc1 shows z-score at minimum 0.5?
Response line: F

Prompt line: Entry COCCOC(=O)N1C(=O)[C@@]2(c3cc(C#CCC(C(=O)OC)C(=O)OC)ccc31)[C@H](C(=O)N1CCCCCCC1)[C@H]1C(=O)O[C@H](c3ccccc3)[C@H](c3ccccc3)N1[C@@H]2c1ccc(OCCO)cc1 : is its z-score no less than 0.5?
Response line: F

Prompt line: Has COc1ccc([Si](C)(C)[C@H]2[C@H](CCn3cc([C@H](O)c4ccccc4)nn3)O[C@@]3(C(=O)N(Cc4cccc(N5CCC5=O)c4)c4ccccc43)[C@@H]2C)cc1 a recorded z-score greater than or equal to 0.5?
Response line: F

Prompt line: I'd appreciate it if you could say whether CC(C)(C)N1CC=CC23O[C@@H]4/C=C\CCCOC(=O)C4[C@H]2C(=O)N(CCO)[C@@H]3C1=O (some centres not stated) has z-score at least equal to 0.5.
Response line: T

Prompt line: Dear colleague, could you confirm whether CCOC(=O)[C@H]1C/C=C/C[C@H](C(=O)OCC)C(=O)O[C@H]2[C@@H](OC)O[C@H](CO)[C@@H](OC(=O)Nc3ccc4c(c3)OCO4)[C@@H]2OC1=O has z-score at or above 0.5?
Response line: T

====

Target: NADPH oxidase 4 (Homo sapiens)
Assay: NOX4-dependent H2O2 signal modulators, primary screen, NOX inhibitor project, cell-based, HEK293-NOX4, tetracycline-induced, Amplex Red fluorescence (AID 1160)
Settings: 45 min, higher = more signal, called active from +8 up or from −8 down
Active and inactive are the calls of the source.
property.measured: z-score

Examples from the recorded data:
CCOC(=O)C[C@H]1[C@H](OC(=O)c2ccccc2-c2ccccc2)[C@@H](NC(=O)Cc2ccc(OC)cc2)c2cc(OCCCO)ccc2N1C(=O)c1ccccc1; 1.15 (inactive)
O=C1N(CCS(=O)(=O)c2ccccc2)Cc2ccccc2[C@H]2OC(c3ccc(OCCCO)cc3)=N[C@@]12CCS(=O)(=O)c1ccccc1; 1.5 (inactive)

Prompt line: Request the reported z-score associated with CC(C)N1C(=O)C[C@@](C(=O)NCc2ccccc2)(c2ccc([N+](=O)[O-])cc2)[C@H]1c1ccc(CO)cc1
Response line: -0.235 (inactive)

Prompt line: Need z-score, item CN(C)CCCCCCNC(=O)[C@H]1C[C@H]2C(=O)N[C@@H](CCCCN)C(=O)N2[C@H]1c1ccc(O)cc1
Response line: -0.145 (inactive)

Prompt line: Query (compound): CC(C)C[C@@H]1NC(=O)[C@@H]2C[C@H](C(=O)NCCCCCC[N+](C)(C)C)[C@H](c3ccc(O)cc3)N2C1=O ; field requested: z-score
Response line: 0.763 (inactive)

====

Assay: A549 lung cancer cell viability effects, profiling panel, resazurin fluorescence, 24 h, PK04 Diversity Set (AID 1171); also: test concentration not given here
Settings: higher = more signal, called active from +8 up or from −8 down
property.measured: z-score
Answer as a number with no unit attached.

These recorded examples may help you get a feel for the data.
COC(=O)C1=CC(CCCO)=CC(C2CC2)N(Cc2sc3ccccc3c2Cl)C=C1C(=O)OC (stereo unspecified); 0.0509
COC(=O)[C@@]1(Cc2ccccc2)N=C(c2ccc(OCCCO)cc2)O[C@H]1c1ccccc1N=[N+]=[N-]; -1.83
O=C1c2ccccc2[C@@]2(Cc3ccccc3N(Cc3ccccc3)C2=O)[C@H](c2ccc(CO)cc2)N1C1CCCCC1; -0.022
COC(=O)C(CC#Cc1ccc2c(c1)[C@]1(C(=O)N2)[C@H](C(=O)NC[C@H](O)c2ccccc2)[C@H]2C(=O)O[C@H](c3ccccc3)[C@H](c3ccccc3)N2[C@@H]1c1ccc(OCCO)cc1)C(=O)OC; 0.199
COc1cc(C(O)C2C=CC3C(=O)N(c4ccccc4)C(=O)C3N2Nc2ccc(C#N)cc2)cc(OC)c1OC (stereo unspecified); -0.404

Could you now consider this next compound?
Prompt line: So what's the measured z-score for this one? CC(C)=CCCC(C)=CC(O)C1C=CC2C(=O)N(c3ccccc3)C(=O)C2N1Nc1ccccc1 (stereo unspecified)
Response line: -0.518

====

Item-by-item account of z-score
Experiment: basal HepG2 mitochondrial membrane potential changes, profiling panel, cell-based, JC-1 fluorescence, 24 h, 100 nL compound (AID 1167); also: test concentration not given here
Conditions: higher = more signal
Respond using a number only.

COc1ccc([Si](C)(C)[C@@H]2[C@@H](CC(=O)N(CCO)Cc3ccccc3)O[C@]3(C(=O)N(C)c4ccccc43)[C@H]2C)cc1; -0.494

Prompt line: Using the record for CC(C)C[C@@H]1NC(=O)[C@H]2C[C@@H](C(=O)NCCCCCNC(=O)CS)[C@@H](c3cccc(OCCO)c3)N2C1=O , report its z-score.
Response line: -0.0747

Prompt line: Request the reported z-score associated with O=C1O[C@@H](c2ccccc2)[C@@H](c2ccccc2)N2[C@@H](c3ccc(O)cc3)[C@]3(C(=O)Nc4ccc(C#CC5=CCCCC5)cc43)[C@@H](C(=O)O)[C@H]12
Response line: -0.956
